# target: catalytic domain of human Bub1 (amino acids 704-1085) (Homo sapiens)
# Construct: catalytic domain of human Bub1 (amino acids 704-1085); His6 (N); made in house; host or cells: Hi5 insect cells
# Sequence (O43683 704-1085): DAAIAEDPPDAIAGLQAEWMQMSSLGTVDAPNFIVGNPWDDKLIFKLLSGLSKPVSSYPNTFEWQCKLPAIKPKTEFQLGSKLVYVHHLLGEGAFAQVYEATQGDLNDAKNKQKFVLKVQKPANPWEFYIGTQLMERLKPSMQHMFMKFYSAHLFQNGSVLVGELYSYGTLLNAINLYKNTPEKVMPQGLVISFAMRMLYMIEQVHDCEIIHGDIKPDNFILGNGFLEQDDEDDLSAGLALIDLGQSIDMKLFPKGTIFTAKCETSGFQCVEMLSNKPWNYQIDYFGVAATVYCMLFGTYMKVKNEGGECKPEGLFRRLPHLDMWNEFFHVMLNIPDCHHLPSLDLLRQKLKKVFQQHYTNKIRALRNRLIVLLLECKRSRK
# test-summary: Bub1 kinase assay (TR-FRET)
# Type: biochemical
# measurement-context: Biological Assay 1: Bub1 kinase assay median IC50, 10 μM ATP
pIC50: −log10 of the molar value.
property: pIC50

Here are 6 molecules together with their reported answers.
| record-smiles | target | pIC50 |
| --- | --- | --- |
| COCCOc1cc(F)c(Cn2nc(-c3ncc(C4CC4)c(Nc4ccncc4OC)n3)c3ccccc32)c(F)c1 | catalytic domain of human Bub1 (amino acids 704-1085) (Homo sapiens) | 8.43 |
| CCOc1cc(F)c(Cn2nc(-c3nc4c(c(Nc5cc(OC)ncn5)n3)CCC4)c3ccccc32)c(F)c1 | catalytic domain of human Bub1 (amino acids 704-1085) (Homo sapiens) | 6.89 |
| CS(=O)(=O)Cc1cnc(-c2nn(Cc3c(F)cc(OCCO)cc3F)c3ccccc23)nc1N(CCO)c1ccncc1 | catalytic domain of human Bub1 (amino acids 704-1085) (Homo sapiens) | 6.32 |
| COCc1cc(Nc2ccncc2C)nc(-c2nn(Cc3c(F)cc(OCCO)cc3F)c3ccccc23)n1 | catalytic domain of human Bub1 (amino acids 704-1085) (Homo sapiens) | 8.27 |
| COCCOc1cc(F)c(Cn2nc(-c3nc(CN4CCOCC4)cc(Nc4ccncn4)n3)c3ccccc32)c(F)c1 | catalytic domain of human Bub1 (amino acids 704-1085) (Homo sapiens) | 7.77 |
| COCCOc1cc(F)c(Cn2nc(-c3nc4c(c(Nc5ccncn5)n3)CNC4)c3ccccc32)c(F)c1 | catalytic domain of human Bub1 (amino acids 704-1085) (Homo sapiens) | 7.70 |

A: COCCOc1cc(F)c(Cn2nc(-c3nc4c(c(Nc5ccnc(C)n5)n3)CCC4)c3ccccc32)c(F)c1
B: CCOc1cc(F)c(Cn2nc(-c3ncc(CCSC)c(Nc4ccncc4)n3)c3ccccc32)c(F)c1
Parameter metric = pIC50. Return the lower-valued option from A and B . Your choice should be expressed through its label.
A

Entry source: patent US20170275270A1
